CC50 overview
- Test system: SK-MEL-28
- test.conditions: read-out: 50% lethal concentration (LC50); SK-MEL-28, Melanoma
endpoint: CC50 (µM)

{"columns": ["molecule", "endpoint", "observed.result"],
 "data": [
  ["C=C1CCC2C3(C)COC(c4cn(-c5ccccc5)nc4-c4ccc(Cl)cc4)OC3CCC2(C)C1CC=C1C(=O)OCC1O (stereo not drawn)", "CC50", 6.35],
  ["C=C1CCC2C3(C)COC(c4cn(-c5ccccc5)nc4-c4ccc(F)cc4)OC3CCC2(C)C1CC=C1C(=O)OCC1O (stereo not drawn)", "CC50", 5.86],
  ["C=C1CCC2C3(C)COC(c4cn(-c5ccccc5)nc4-c4cccc(Br)c4)OC3CCC2(C)C1CC=C1C(=O)OCC1O (stereo not drawn)", "CC50", 6.2]
]}

###

CC50 overview
- Tested on: SW-620
- test.conditions: read-out: 50% lethal concentration (LC50); SW-620, Colon
endpoint: CC50

{"columns": ["compound", "observed.result"],
 "data": [
  ["C=C1CCC2C3(C)COC(c4cn(-c5ccccc5)nc4-c4ccc(Br)cc4)OC3CCC2(C)C1CC=C1C(=O)OCC1O (stereo not drawn) [1h]", "> 100 µM"],
  ["C=C1CCC2C3(C)COC(c4cn(-c5ccccc5)nc4-c4cccc(F)c4)OC3CCC2(C)C1CC=C1C(=O)OCC1O (stereo not drawn) [1c]", "> 100 µM"],
  ["C=C1CCC2C3(C)COC(c4cn(-c5ccccc5)nc4-c4ccc(F)cc4)OC3CCC2(C)C1CC=C1C(=O)OCC1O (stereo not drawn) [1f]", "> 100 µM"],
  ["C=C1CCC2C3(C)COC(c4cn(-c5ccccc5)nc4-c4ccc(Cl)cc4)OC3CCC2(C)C1CC=C1C(=O)OCC1O (stereo not drawn) [1g]", "> 100 µM"],
  ["C=C1CCC2C3(C)COC(c4cn(-c5ccccc5)nc4-c4ccccc4)OC3CCC2(C)C1CC=C1C(=O)OCC1O (stereo not drawn) [1a]", "7.82 µM"],
  ["C=C1CCC2C3(C)COC(c4cn(-c5ccccc5)nc4-c4ccc(C)cc4)OC3CCC2(C)C1CC=C1C(=O)OCC1O (stereo not drawn) [1i]", "> 100 µM"],
  ["C=C1CCC2C3(C)COC(c4cn(-c5ccccc5)nc4-c4cccc(Cl)c4)OC3CCC2(C)C1CC=C1C(=O)OCC1O (stereo not drawn) [1d]", "7.55 µM"],
  ["C=C1CCC2C3(C)COC(c4cn(-c5ccccc5)nc4-c4ccc(OC)cc4)OC3CCC2(C)C1CC=C1C(=O)OCC1O (stereo not drawn) [1j]", "8.55 µM"],
  ["C=C1CCC2C3(C)COC(c4cn(-c5ccccc5)nc4-c4cccc([N+](=O)[O-])c4)OC3CCC2(C)C1CC=C1C(=O)OCC1O (stereo not drawn) [1b]", "> 100 µM"]
]}

###

- Tested on: SN12C
- test.conditions: read-out: 50% lethal concentration (LC50), Renal
CC50 overview

{"columns": ["molecule", "CC50"],
 "data": [
  ["C=C1CCC2C3(C)COC(c4cn(-c5ccccc5)nc4-c4ccccc4)OC3CCC2(C)C1CC=C1C(=O)OCC1O (stereo not shown)", "8.37 µM"],
  ["C=C1CCC2C3(C)COC(c4cn(-c5ccccc5)nc4-c4cccc(Cl)c4)OC3CCC2(C)C1CC=C1C(=O)OCC1O (stereo not shown)", "7.92 µM"],
  ["C=C1CCC2C3(C)COC(c4cn(-c5ccccc5)nc4-c4ccc(OC)cc4)OC3CCC2(C)C1CC=C1C(=O)OCC1O (stereo not shown)", "65.1 µM"],
  ["C=C1CCC2C3(C)COC(c4cn(-c5ccccc5)nc4-c4ccc(Br)cc4)OC3CCC2(C)C1CC=C1C(=O)OCC1O (stereo not shown)", "7.48 µM"],
  ["C=C1CCC2C3(C)COC(c4cn(-c5ccccc5)nc4-c4cccc(Br)c4)OC3CCC2(C)C1CC=C1C(=O)OCC1O (stereo not shown)", "8.12 µM"],
  ["C=C1CCC2C3(C)COC(c4cn(-c5ccccc5)nc4-c4ccc(C)cc4)OC3CCC2(C)C1CC=C1C(=O)OCC1O (stereo not shown)", "7.15 µM"],
  ["C=C1CCC2C3(C)COC(c4cn(-c5ccccc5)nc4-c4cccc([N+](=O)[O-])c4)OC3CCC2(C)C1CC=C1C(=O)OCC1O (stereo not shown)", "> 100 µM"]
]}
